Molecular target: WalR (Staphylococcus aureus, UniProt Q2FKN8 1-233)
Sequence (Q2FKN8 whole entry): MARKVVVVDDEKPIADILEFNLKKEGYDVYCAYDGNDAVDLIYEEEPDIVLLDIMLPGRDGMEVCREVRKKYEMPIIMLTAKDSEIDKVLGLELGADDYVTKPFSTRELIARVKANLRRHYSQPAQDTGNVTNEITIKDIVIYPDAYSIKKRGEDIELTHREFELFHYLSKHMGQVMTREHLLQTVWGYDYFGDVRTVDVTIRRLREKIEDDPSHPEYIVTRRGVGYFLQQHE
Assay: EMSA
parameter-measured: binding result

• isaA promoter EMSA probe (dsDNA) DNA 1: AAATAACACTTGATATTGTAATGTTTTGTAAAGAAAGTGTAATTTACTGGCTGGTTTTTTGTGATATAGT DNA 2: ACTATATCACAAAAAACCAGCCAGTAAATTACACTTTCTTTACAAAACATTACAATATCAAGTGTTATTT = binds
• ltaS promoter EMSA probe (WalR site) (dsDNA) DNA 1: ATATTTATTAATTGAGCTATGCTTATTATTACAATTTGATTACAAATTTTAAATTTGTTAATTGAATGAT DNA 2: ATCATTCAATTAACAAATTTAAAATTTGTAATCAAATTGTAATAATAAGCATAGCTCAATTAATAAATAT = binds
• sle1 promoter EMSA probe (dsDNA) DNA 1: TTTGATGATACAGTATATGATTTTTTTGTAATCATAATGTCATCAAACATCAACCTATTATACATAATAA DNA 2: TTATTATGTATAATAGGTTGATGTTTGATGACATTATGATTACAAAAAAATCATATACTGTATCATCAAA = binds
• sasD promoter EMSA probe (dsDNA) DNA 1: CTTTTGTAATCGTATGATAATGTAAATGTAATCAAATTGTAATATAAGGGGACAAGACAATGAAAAAATT DNA 2: AATTTTTTCATTGTCTTGTCCCCTTATATTACAATTTGATTACATTTACATTATCATACGATTACAAAAG = binds

Now let's try a different one.
binding result reading for SAUSA300_0602 promoter EMSA probe (dsDNA) DNA 1: GAAATATAAAAGTAGTAATTATTATTTGTAATATAATTGTAATATGACTGTTGTTTTAGAAATGATTGTT DNA 2: AACAATCATTTCTAAAACAACAGTCATATTACAATTATATTACAAATAATAATTACTACTTTTATATTTC : binds
